This collection of values is drawn from the supplement of paper PMC10567573.

B1: LOXL2 (parent)
chain: RLLRFSSQIHNNGQSDFRPKNGRH

variants of: B1; test: protein stability index of a GFP-peptide fusion (GPS, HEK-293T) (PSI 1-6); higher = more stable; details: c terminus: a fixed tail appended;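 note: lentivirally expressed fusions sorted by FACS into six bins by GFP to DsRed ratio, PSI derived from sequencing read proportions per bin multiplied by bin number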
measured_quantity: protein stability index

>>> print(df.to_string())
    mutation_descriptor  observed
 0                 R23S      3.14
 1                 K20I      2.17
 2                 K20A      2.49
 3                 S15A      2.61
 4                 P19F      2.13
 5                 Q14P      2.81
 6                  Q8L      2.29
 7                 R18I      2.61
 8                 Q14M       2.5
 9                  L2I      3.28
10                 N11S      2.54
11                 K20V      2.35
12                 N21H      2.23
13                 G13M      2.81
14                  F5I      2.72
15                 N21V      2.41
16                 N12M      2.36
17                 G22V      2.01
18                  L2M      3.27
19                 K20D      2.91
20                 D16A      2.36
21                  L2Y      3.35
